PBM binding z-score for assorted sequences
Tested on: PPARa:RXRa (NR concentration 270 nM, RXRa partner concentration 90 nM)
Assay: PBM binding z-score (relative to random genomic background probes); higher = stronger binding; sequences stand for … in GC…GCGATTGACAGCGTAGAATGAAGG

SEQUENCE STRING: ACTAGTCGGTCAGCTGAGGTCACACACAATTCGG
PBM binding z-score: 4.15

SEQUENCE STRING: AGTCAAAGTACACTAGGTAACGTAAGATTCAGCT
PBM binding z-score: 0.196

SEQUENCE STRING: ATCGAAAGGTCGAGGTGAGCATAGAGAAAGGGAA
PBM binding z-score: 4.61

SEQUENCE STRING: CAAACTAGGTCACAGAGGTCTAAGTCCGTGCGTA
PBM binding z-score: 5.17

SEQUENCE STRING: CGAACTAGGTCAGAACAGGACACTGAAGGATGAT
PBM binding z-score: 3.15

SEQUENCE STRING: CGAGCTAGGTCAGAACAGGACAGTGAAGGATGAT
PBM binding z-score: 1.11

SEQUENCE STRING: TCGAGTAGGTCAGTCGGGGCATTCAGCCAACATA
PBM binding z-score: 2.56

SEQUENCE STRING: TAGCCTTGGTCATTCAGGGGCCAGTATAGAAAGC
PBM binding z-score: 0.0582

SEQUENCE STRING: TCTATTAGTTGATTAGAGCAACCGAAACAGCGGA
PBM binding z-score: 0.484

SEQUENCE STRING: CTCGACAGGTCGGTTGAGGTGAGTATACGGATAA
PBM binding z-score: 0.423

SEQUENCE STRING: TCTATTAGTTGATTAGGGCGACCGAAACAGCGGA
PBM binding z-score: 0.801

SEQUENCE STRING: TGACCAAGGTGAAGGTCGTTGATCCCTCTGTAGA
PBM binding z-score: 2.49

SEQUENCE STRING: TCGAGTAGGTTAGCGGCATTCAGAATGGCGTCGA
PBM binding z-score: 0.0919

SEQUENCE STRING: ACTATTAGTTGACTTAGGGCAATCGATACGACGC
PBM binding z-score: -0.0585

SEQUENCE STRING: ACTATTAGTTGCCTTAGGGCAACCGATACGACGC
PBM binding z-score: 0.287

SEQUENCE STRING: CCTACTGGGCCCAAGGTCATTGATTCCAATGCTC
PBM binding z-score: 3.65

SEQUENCE STRING: CTTCCAAGGTGAACAAGGTCGTTGATTACTATTC
PBM binding z-score: 2.49

SEQUENCE STRING: TCTTGTAGATCAAGCAGGGTAAGAAAGCCTGAGT
PBM binding z-score: 0.15

SEQUENCE STRING: CAAACTAGGTCACAGAGATCAAAGTCCGTGCGTA
PBM binding z-score: 5.25

SEQUENCE STRING: CCTCGGAGGATAGAAGGTCAGAGCTGTCCGCTTT
PBM binding z-score: 1.83

SEQUENCE STRING: TCTGCTAGGTCAGTTGGTCAGATAACGAGCTGCC
PBM binding z-score: 1.36

SEQUENCE STRING: CAAACTAGGTCACCGGAAGGTCACAGTCCGCATG
PBM binding z-score: 5.9

SEQUENCE STRING: GGAACGAGGGCAGAGTTGATAGCATCTGTCGACG
PBM binding z-score: 2.39

SEQUENCE STRING: CCTAGCAGGCCAAACTGGGTCACTCAAGGCTTGA
PBM binding z-score: 3.05

SEQUENCE STRING: TCTCGGAGGACACGAAGGTGAGAGCTTTCCAGAG
PBM binding z-score: -0.0332

SEQUENCE STRING: ATAGGTAGGTTAAGGGTCATTCAGGTTGGTTCGC
PBM binding z-score: 5.86

SEQUENCE STRING: TCTATTAGTTGAAGGGCACCCGACGAGTCCGTTT
PBM binding z-score: 0.943

SEQUENCE STRING: CATACAGGGTCAGCTAGGTCAGAGTAGGGACGGC
PBM binding z-score: 4.72

SEQUENCE STRING: TCATATAGGTAAAGGTCAAAGTCGAACGATATGA
PBM binding z-score: 6.15

SEQUENCE STRING: GCATATAGGTAATACAAGGTGTAAGTCCGATTGT
PBM binding z-score: 0.159

SEQUENCE STRING: AGAATGAGGTTACCAACGATCAGGGAAACGCTTG
PBM binding z-score: 3.66

SEQUENCE STRING: TCATATAGGTAATACAGTTGAAAGTCGGCATCTA
PBM binding z-score: 1.56

SEQUENCE STRING: TCATATAGGTAAAGGTGCAAGTCGAACGATATGA
PBM binding z-score: 2.77

SEQUENCE STRING: AGAATGAGGTTATTAAGATCAGGGAGTTGCGGTC
PBM binding z-score: 2.49

SEQUENCE STRING: ATACCAAGGTGATCGTGAGGCCGTTGATACTAAC
PBM binding z-score: 0.139

SEQUENCE STRING: TCTACTTGGTCAAAGGTCACACACTCGAAATGCG
PBM binding z-score: 6.72

SEQUENCE STRING: ACAGACAGGCGAGTGAAGGTAACTCAGCTGGACG
PBM binding z-score: -0.25

SEQUENCE STRING: ATACCAAGGTGATCGTGAGGTCTTTGATACTAAC
PBM binding z-score: 0.646

SEQUENCE STRING: TTATATAGGTAAATGCTAGGTGAAAGTCCGATCT
PBM binding z-score: 2.18

SEQUENCE STRING: TCTTGTAGATCAACAGGAGGTTAAGATAGATCGA
PBM binding z-score: 1.34

SEQUENCE STRING: ACTTACAGGTCAACGAGGTTATAGCACGCGTATA
PBM binding z-score: 5.76

SEQUENCE STRING: ATCGTAAGGTCGAAGGTGAGTATACCCACCCGAA
PBM binding z-score: 3.41

SEQUENCE STRING: GGAGCGAGGGCAAAGTTGATAGCATCTGTCGACG
PBM binding z-score: 2.54

SEQUENCE STRING: TCCTGTAGATCAAGCAGGTTAAGAAAGCCTGAGT
PBM binding z-score: 0.563

SEQUENCE STRING: TCGAGTTGGTTAGGGGCATTCAGAATGGCGTCGA
PBM binding z-score: 0.575

SEQUENCE STRING: GTACCAAGGTGAATAGGTCATTGATGAGTAGGCG
PBM binding z-score: 3.87

SEQUENCE STRING: CGTGAAAGTTCAACTAAGGTAACGTAAAGCACGC
PBM binding z-score: 4.98

SEQUENCE STRING: CCTACTGGGCCACGATAGGTCATTGATTCAGTGA
PBM binding z-score: 2.79

SEQUENCE STRING: ATCTCTAGGTAACCAAGTGCAGTGAATGCCGAAC
PBM binding z-score: -0.0554

SEQUENCE STRING: GCGACTGGGGCAAAGCAGGCTACCATAAGGTTGG
PBM binding z-score: 0.527

SEQUENCE STRING: CCTCAAAGTTCAAGGTAACGTAACAGAAAGCAGC
PBM binding z-score: 4.85
